system: OVCAR-8; assay: Cytotoxicity against human OVCAR8 cells at 10^-6 M after 72 hrs by MTS assay; type: functional; conditions: OVCAR-8, 72 h, read-out: GI
Recorded inhibition of growth at 1 µM values for a group of compounds are listed next.
Measured Quantity: inhibition of growth at 1 µM (%)

INSERT INTO assay_data (chemical_smiles, unit_spec, reported_result) VALUES
  ('COc1ccc(/C(=C2/O[C@@H]([C@H]3COC(C)(C)O3)[C@H]3OC(C)(C)O[C@@H]23)c2cc(OC)c(OC)c(OC)c2)cc1O', '%', 0),
  ('COc1cc(C(=C(CO)CO)c2ccc3ccccc3c2)cc(OC)c1OC', '%', 0),
  ('COc1cc(C(=C(CO)CO)c2cc(OC)c(OC)c(OC)c2)cc(OC)c1OC', '%', 0);

###

species on record: Ovis aries; test: Inhibition of sheep brain tubulin polymerization at 10 uM
Activity calls are given as the source filed them. No cut-off for these calls is given here.
Outcomes: T = active, F = inactive

INSERT INTO measurements (chemical_smiles, classification) VALUES
  ('COc1ccc(C(=O)c2cc(OC)c(OC)c(OC)c2)cc1O', 'T'),
  ('COc1cc(/C(=C2\O[C@@H]([C@H](O)CO)[C@H]3OC(C)(C)O[C@@H]23)c2cccc(N)c2)cc(OC)c1OC', 'F'),
  ('COc1ccc(C(=C(COC(C)=O)COC(C)=O)c2cc(OC)c(OC)c(OC)c2)cc1O', 'F'),
  ('COc1cc(C(=C(CO)CO)c2cc(OC)c(OC)c(OC)c2)cc(OC)c1OC', 'F'),
  ('COc1cc(C(=C(COC(C)=O)COC(C)=O)c2ccc3ccccc3c2)cc(OC)c1OC', 'F'),
  ('COc1cc(C(=C(CO)CO)c2ccc3ccccc3c2)cc(OC)c1OC', 'F'),
  ('COc1cc([C@@H]2c3cc4c(cc3C[C@H]3COC(=O)[C@@H]32)OCO4)cc(OC)c1OC', 'T');

###

tested on: PC-3; test: Cytotoxicity against human PC3 cells at 10^-6 M after 72 hrs by MTS assay; format: functional; settings: PC-3, 72 h, read-out: GI
Recorded inhibition of growth at 1 µM values for a group of molecules are listed next.
Measured Quantity: inhibition of growth at 1 µM (%)

INSERT INTO assay_data (chemical_smiles, reported_result) VALUES
  ('COc1ccc(C(=C(COC(C)=O)COC(C)=O)c2cc(OC)c(OC)c(OC)c2)cc1O', 14),
  ('COc1cc(C(=C(CO)CO)c2cc(OC)c(OC)c(OC)c2)cc(OC)c1OC', 18),
  ('COc1ccc(/C(=C2/O[C@@H]([C@H]3COC(C)(C)O3)[C@H]3OC(C)(C)O[C@@H]23)c2cc(OC)c(OC)c(OC)c2)cc1O', 0);

###

assay: Cytotoxicity against human HL60R cells at 10^-5 M after 72 hrs by MTS assay; type: functional, HL-60; conditions: read-out: GI
Measured Quantity: inhibition of growth at 10 µM (%)

INSERT INTO results (chemical_smiles, reported_result) VALUES
  ('COc1ccc(/C(=C2/O[C@@H]([C@H]3COC(C)(C)O3)[C@H]3OC(C)(C)O[C@@H]23)c2cc(OC)c(OC)c(OC)c2)cc1O', 63),
  ('COc1ccc(C(=C(COC(C)=O)COC(C)=O)c2cc(OC)c(OC)c(OC)c2)cc1O', 90),
  ('COc1cc(C(=C(CO)CO)c2cc(OC)c(OC)c(OC)c2)cc(OC)c1OC', 0);
